This collection of values is drawn from patent US5073566A.

biological target: angiotensin-induced vasoconstriction (rabbit aorta) (Oryctolagus cuniculus, UniProt P34976); construct: the thoracic aortas were removed and cleaned of excess fat and connective tissue; from tissue; host or cells: thoracic aorta rings of New Zealand white rabbits; assay: Rabbit Aorta Test System: antagonism of angiotensin II-induced contraction of aortic rings; format: cell-based, New Zealand white rabbits; details: pA2 = -log KB; KB = [molar concentration of antagonist]/[(EC50 AII with antagonist/EC50 AII without antagonist)-1]; 30 min incubation; AII 10^-10 to 10^-7 M; read-out: Rabbit Aorta (pA2) (converted)
Sequence (P34976 whole entry): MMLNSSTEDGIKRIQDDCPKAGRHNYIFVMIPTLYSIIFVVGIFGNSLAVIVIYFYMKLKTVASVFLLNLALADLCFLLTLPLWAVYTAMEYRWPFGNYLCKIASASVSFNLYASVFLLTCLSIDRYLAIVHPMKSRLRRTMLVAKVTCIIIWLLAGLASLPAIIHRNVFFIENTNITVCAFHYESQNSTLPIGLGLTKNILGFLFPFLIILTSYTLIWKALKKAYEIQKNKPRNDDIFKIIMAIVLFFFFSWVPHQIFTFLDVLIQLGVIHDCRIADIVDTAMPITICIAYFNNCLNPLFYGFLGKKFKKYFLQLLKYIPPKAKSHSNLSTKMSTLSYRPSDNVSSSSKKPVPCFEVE
Parameter Kb: see the listing below.

{"compound": "CCCCCCC(C(=O)O)n1cnc(NC(=O)C2c3ccccc3Oc3ccccc32)c1.Cl.O (stereo not drawn) [Example 32, hydrochloride monohydrate]", "outputUnit": "µM", "Kb": 21.4}
{"compound": "CCCCCCC(C(=O)O)n1cnc(NC(=O)c2c(C(=O)O)cccc2[N+](=O)[O-])c1 (stereo not drawn)", "outputUnit": "µM", "Kb": 1.62}
{"compound": "CCCCCCC(C(=O)O)n1cnc(NC(=O)C(CC)(c2ccccc2)c2ccccc2)c1 (stereo not drawn)", "outputUnit": "µM", "Kb": 10.2}
{"compound": "CCCCCCC(c1cccc(C(=O)NC(c2ccccc2)c2ccccc2)c1)c1nnn[nH]1 (stereo not drawn)", "outputUnit": "µM", "Kb": 40.7}
{"compound": "CCCCCCC(C(=O)O)n1cnc(NC(=O)c2c(O)ccc3ccccc23)c1 (stereo not drawn)", "outputUnit": "µM", "Kb": 5.5}
{"compound": "CCCCCCC(C(=O)O)n1cnc(C(=O)Nc2ccccc2CCO)c1.Cl (stereo not drawn) [Example 86, hydrochloride]", "outputUnit": "µM", "Kb": 3.24}
{"compound": "CCCCCCC(C(=O)O)n1ccc(C(=O)NC(c2ccccc2)c2ccccc2)c1 (stereo not drawn)", "outputUnit": "µM", "Kb": 6.03}
{"compound": "CCCCCCC(C(=O)O)n1cnc(C(=O)NC(c2ccccc2)c2ccccc2)n1.Cl (stereo not drawn) [Example 52, hydrochloride]", "outputUnit": "µM", "Kb": 8.32}
{"compound": "CCCCCCC(CC(=O)OC)n1cnc(NC(=O)c2ccccc2C(=O)O)c1 (stereo not drawn)", "outputUnit": "µM", "Kb": 2.34}

----------
system: angiotensin II receptor; assay: Adrenal Glomerulosa Test System: I125-angiotensin II binding to adrenal membranes; settings: percent inhibition of I125 angiotensin binding at 10^-5 M of antagonist; rat adrenal membranes; 0.1 nM I125-angiotensin II
endpointName: Adrenal Glomerulosa (% Inhibition of Binding) (%)

{"compound": "CCCCCCC(C(=O)O)n1cnc(C(=O)NCc2ccc(O)cc2)c1.Cl (centres unmarked)", "measurement": 41}
{"compound": "CCCCCCC(C(=O)O)n1cnc(NC(=O)c2cccc(O)c2C(=O)O)c1 (centres unmarked) [Example 30, monohydrate]", "measurement": 66}
{"compound": "CCCCCCC(CCC(=O)O)n1cnc(NC(=O)c2ccccc2C(=O)O)c1 (centres unmarked) [Example 41, hemihydrate]", "measurement": 30}
{"compound": "CCCCCCC(CC(=O)O)n1cnc(NC(=O)c2cccc(O)c2C(=O)O)c1.O (centres unmarked)", "measurement": 64}
{"compound": "CCCCCCC(C(=O)O)n1cnc(C(=O)Nc2ccc(CCO)cc2)c1.Cl (centres unmarked)", "measurement": 7}
{"compound": "CCCCCCC(CC(=O)OC)n1cnc(NC(=O)c2ccccc2C(=O)O)c1 (centres unmarked)", "measurement": 57}
{"compound": "CCCCCC(CO)n1cnc(NC(=O)c2ccccc2C(=O)O)c1 (centres unmarked)", "measurement": 15}
{"compound": "CCCCCCC(C(=O)O)n1cnc(NC(=O)c2ccccc2-c2nnn[nH]2)c1.O (centres unmarked)", "measurement": 58}

----------
tested on: angiotensin II receptor; assay: Adrenal Glomerulosa Test System: I125-angiotensin II binding to adrenal membranes; details: percent inhibition of I125 angiotensin binding at 10^-5 M of antagonist; rat adrenal membranes; 0.1 nM I125-angiotensin II
Counter-ions that a name gives are not always drawn.
endpointName: Adrenal Glomerulosa (% Inhibition of Binding)

{"molecule": "CCCCCCC(C(=O)O)n1cnc(NC(=O)C2c3ccccc3-c3ccccc32)c1 (stereo not shown) [Example 31, hydrochloride]", "measurement": "70%"}
{"molecule": "CCCCCCC(C(=O)O)n1cnc(NC(=O)c2ccccc2C(=O)O)c1 (stereo not shown)", "measurement": "42%"}
{"molecule": "CCCCCCC(c1nnn[nH]1)n1cnc(C(=O)NC(c2ccccc2)c2ccccc2)c1 (stereo not shown)", "measurement": "61%"}
{"molecule": "CCCCCCC(C(=O)O)n1cnc(NC(=O)c2ccc(C)cc2C(=O)O)c1 (stereo not shown)", "measurement": "10%"}

----------
target: angiotensin-induced vasoconstriction (rabbit aorta) (Oryctolagus cuniculus); construct: the thoracic aortas were removed and cleaned of excess fat and connective tissue; from tissue; host or cells: thoracic aorta rings of New Zealand white rabbits; assay: Rabbit Aorta Test System: antagonism of angiotensin II-induced contraction of aortic rings; format: cell-based, New Zealand white rabbits; conditions: pA2 = -log KB; KB = [molar concentration of antagonist]/[(EC50 AII with antagonist/EC50 AII without antagonist)-1]; 30 min incubation; AII 10^-10 to 10^-7 M; read-out: Rabbit Aorta (pA2) (converted)
endpointName: log10(Kb) (log10 of the value in µM)

{"compound": "CCCCCCC(C(=O)O)n1cnc(NC(=O)c2cccc([N+](=O)[O-])c2C(=O)O)c1.O (centres unmarked) [Example 45, hydrate]", "log10(Kb)": 0.62}
{"compound": "CCCCCCC(C(=O)O)n1cnc(NC(=O)c2cccc(O)c2C(=O)O)c1 (centres unmarked) [Example 30, monohydrate]", "log10(Kb)": -0.96}
{"compound": "CCCCCCC(C(=O)O)n1nnc(NC(=O)c2ccccc2C(=O)O)n1 (centres unmarked)", "log10(Kb)": 0.70}
{"compound": "CCCCCCC(C(=O)O)n1cnc(NC(=O)c2ccccc2O)c1 (centres unmarked)", "log10(Kb)": 0.10}
{"compound": "CCCCCCC(C(=O)O)n1cnc(C(=O)Nc2cccc(CO)c2)c1.Cl (centres unmarked) [Example 85, hydrochloride]", "log10(Kb)": 1.20}
{"compound": "CCCCCCC(C(=O)OCC)n1cnc(NC(=O)c2ccccc2C(=O)O)c1 (centres unmarked)", "log10(Kb)": 0.52}
{"compound": "CCCCCCC(C(=O)OCC)n1cnc(NC(=O)C2c3ccccc3-c3ccccc32)c1 (centres unmarked)", "log10(Kb)": 1.88}
{"compound": "CCCCCCC(C(=O)O)n1cnc(NC(=O)c2ccccc2-c2nn[nH]n2)c1 (centres unmarked) [Example 42, monohydrate]", "log10(Kb)": -0.48}
{"compound": "CCCCCCC(C#N)n1cnc(NC(=O)c2ccccc2C(=O)O)c1 (centres unmarked)", "log10(Kb)": 0.40}
{"compound": "CCCCCCC(C(=O)O)n1cnc(C(=O)NC2c3ccccc3-c3ccccc32)c1.Cl (centres unmarked) [Example 44, hydrochloride]", "log10(Kb)": 0.60}
{"compound": "CCCCCC(CO)n1cnc(NC(=O)c2ccccc2C(=O)O)c1 (centres unmarked)", "log10(Kb)": 0.92}
{"compound": "CCCCCCC(C(=O)O)c1ccc(C(=O)c2ccccc2C(=O)O)cc1 (centres unmarked)", "log10(Kb)": 0.02}
{"compound": "CCCCCCC(CC(=O)O)n1cnc(NC(=O)c2cccc(O)c2C(=O)O)c1.O (centres unmarked) [Example 27, hydrate]", "log10(Kb)": -0.85}
{"compound": "CCCCCCC(CCC(=O)O)n1cnc(NC(=O)c2ccccc2C(=O)O)c1 (centres unmarked) [Example 41, hemihydrate]", "log10(Kb)": -0.19}
{"compound": "CCCCCCC(c1nnn[nH]1)n1cnc(C(=O)NC(c2ccccc2)c2ccccc2)c1 (centres unmarked)", "log10(Kb)": 1.08}
{"compound": "CCCCCCC(C(=O)O)n1cnc(NC(=O)c2ccc(C)cc2C(=O)O)c1 (centres unmarked)", "log10(Kb)": 0.54}
{"compound": "CCCCCCC(C(=O)O)n1cc(C(=O)NC(c2ccccc2)c2ccccc2)cn1 (centres unmarked)", "log10(Kb)": 1.14}

----------
Parameter Adrenal Glomerulosa (% Inhibition of Binding): see the listing below.
tested on: angiotensin II receptor; assay: Adrenal Glomerulosa Test System: I125-angiotensin II binding to adrenal membranes; details: percent inhibition of I125 angiotensin binding at 10^-5 M of antagonist; rat adrenal membranes; 0.1 nM I125-angiotensin II
endpointName: Adrenal Glomerulosa (% Inhibition of Binding)

{"compound": "CCCCC(C(=O)O)n1cnc(C(=O)Nc2ccc(O)cc2)c1.Cl (centres unmarked) [Example 88]", "measurement": "22%"}
{"compound": "CCCCCCC(C(=O)O)c1ccc(NC(=O)C2(O)c3ccccc3-c3ccccc32)cc1 (centres unmarked) [Example 46]", "measurement": "39%"}
{"compound": "CCCCCCC(C(=O)O)n1cnc(NC(=O)c2ccc(O)c(O)c2)c1 (centres unmarked) [Example 79, hydrate]", "measurement": "18%"}
{"compound": "CCCCCCC(C(=O)O)n1cnc(C(=O)NC(c2ccccc2)c2ccccc2)n1.Cl (centres unmarked) [Example 52]", "measurement": "44%"}
{"compound": "CCCCCCC(C(=O)O)n1cnc(NC(=O)c2c(C(=O)O)ccc3ccccc23)c1 (centres unmarked) [Example 35]", "measurement": "36%"}
{"compound": "CCCCCCC(C(=O)O)n1cnc(NC(=O)C2c3ccccc3Oc3ccccc32)c1.Cl.O (centres unmarked) [Example 32]", "measurement": "54%"}
{"compound": "CCCCCCC(C(=O)O)n1cnc(C(=O)Nc2ccccc2CCO)c1.Cl (centres unmarked) [Example 86]", "measurement": "57%"}
{"compound": "CCCCCCC(C(=O)O)n1cnc(NC(=O)C2(O)c3ccccc3-c3ccccc32)c1 (centres unmarked) [Example 59]", "measurement": "67%"}
{"compound": "CCCCCCC(C(=O)OCC)n1cnc(NC(=O)c2ccccc2C(=O)O)c1 (centres unmarked) [Example 5]", "measurement": "39%"}
{"compound": "CCCCCCC(C(=O)O)n1cnc(C(=O)Nc2cccc(CO)c2)c1.Cl (centres unmarked) [Example 85]", "measurement": "0%"}
{"compound": "CCCCCCC(C(=O)O)n1cnc(NC(=O)c2cc(C(=O)O)ccc2O)c1 (centres unmarked) [Example 36]", "measurement": "5%"}
{"compound": "CCCCCCC(C#N)n1cnc(NC(=O)c2ccccc2C(=O)O)c1 (centres unmarked) [Example 12]", "measurement": "44%"}
{"compound": "CCCCCCC(C(=O)O)n1cnc(NC(=O)C(c2ccccc2)c2ccccc2)c1.Cl (centres unmarked) [Example 51]", "measurement": "80%"}
{"compound": "CCCCCCC(C(=O)O)c1ccc(C(=O)c2ccccc2C(=O)O)cc1 (centres unmarked) [Example 56]", "measurement": "75%"}
{"compound": "CCCCCCC(C(=O)O)n1cnc(NC(=O)c2c(C(=O)O)cccc2[N+](=O)[O-])c1 (centres unmarked) [Example 40]", "measurement": "9%"}
{"compound": "CCCCCC(C(=O)O)c1ccc(Oc2ccccc2C(=O)O)cc1 (centres unmarked) [Example 55]", "measurement": "13%"}
{"compound": "CCCCCCC(C(=O)O)n1cnc(C(=O)Nc2ccccc2CCCCO)c1.Cl (centres unmarked) [Example 84]", "measurement": "77%"}
{"compound": "CCCCCCC(C(=O)O)n1cnc(NC(=O)Cc2ccccc2C(=O)O)c1.O (centres unmarked) [Example 34]", "measurement": "31%"}
{"compound": "CCCCCCC(C(=O)OCC)n1cnc(NC(=O)C(O)(c2ccccc2)c2ccccc2)c1 (centres unmarked) [Example 14]", "measurement": "2%"}
{"compound": "CCCCCCC(C(=O)O)n1cnc(NC(=O)c2ccccc2O)c1 (centres unmarked) [Example 76]", "measurement": "35%"}
{"compound": "CCCCCCC(C(=O)OCC)c1ccc(NC(=O)c2ccccc2C(=O)O)cc1 (centres unmarked) [Example 9]", "measurement": "25%"}
{"compound": "CCCCCCC(C(=O)O)n1cnc(C(=O)Nc2ccccc2CO)c1.Cl (centres unmarked) [Example 83]", "measurement": "53%"}
{"compound": "CCCCCCC(CC(=O)O)n1cnc(NC(=O)c2ccccc2C(=O)O)c1.O (centres unmarked) [Example 39]", "measurement": "44%"}
{"compound": "CCCCCCC(C(=O)O)c1ccc(Cc2ccccc2C(=O)O)cc1 (centres unmarked) [Example 94]", "measurement": "58%"}
{"compound": "CCCCCCC(c1nn[nH]n1)n1cnc(NC(=O)c2ccccc2C(=O)O)c1 (centres unmarked) [Example 50, hemihydrate]", "measurement": "42%"}
{"compound": "CCCCC(C(=O)O)n1cnc(C(=O)Nc2ccccc2O)c1.Cl (centres unmarked) [Example 89]", "measurement": "54%"}
{"compound": "CCCCCCC(C(=O)O)n1cnc(NC(=O)c2cccc(O)c2)c1 (centres unmarked) [Example 78, hemihydrate]", "measurement": "21%"}
{"compound": "CCCCCCC(C(=O)O)n1cnc(C(=O)NC2CCc3ccccc32)c1.Cl (centres unmarked) [Example 57]", "measurement": "77%"}
{"compound": "CCCCCCC(C(=O)OCC)n1cnc(NC(=O)C2c3ccccc3-c3ccccc32)c1 (centres unmarked) [Example 15]", "measurement": "5%"}
{"compound": "CCCCCCC(C(=O)O)n1cnc(NC(=O)c2c(O)ccc3ccccc23)c1 (centres unmarked) [Example 77]", "measurement": "36%"}
{"compound": "CCCCCCC(C(=O)O)n1cc(C(=O)NC(c2ccccc2)c2ccccc2)cn1 (centres unmarked) [Example 54]", "measurement": "40%"}
{"compound": "CCCCCCC(C(=O)OCC)c1ccc(NC(=O)C2c3ccccc3-c3ccccc32)cc1 (centres unmarked) [Example 18]", "measurement": "3%"}
{"compound": "CCCCCCC(C(=O)O)n1cnc(C(=O)NC2c3ccccc3-c3ccccc32)c1.Cl (centres unmarked) [Example 44]", "measurement": "67%"}
{"compound": "CCCCCCC(C(=O)O)n1cnc(C(=O)Nc2ccccc2O)c1.Cl (centres unmarked) [Example 82]", "measurement": "62%"}
{"compound": "CCCCCCC(C(=O)O)n1cnc(NC(=O)c2cccc(N)c2C(=O)O)c1 (centres unmarked) [Example 96]", "measurement": "59%"}
